Quick list: self-cleavage per entry.
B1: HDV Ribozyme (parent)
chain: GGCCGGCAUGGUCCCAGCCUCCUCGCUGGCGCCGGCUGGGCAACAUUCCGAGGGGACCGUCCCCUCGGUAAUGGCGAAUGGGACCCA

# Variants of: B1
# assay method text: self-cleavage, relative activity (ratio to wild type); higher = more cleavage; co-transcriptional
Kindly provide the number alone.

The variant U20A A77U showed self-cleavage equal to 0

The variant A16G G29U showed self-cleavage equal to 0.0354

The variant A43G G81C showed self-cleavage equal to 0

The variant U46C G76C showed self-cleavage equal to 0.415

The variant C19U U23G showed self-cleavage equal to 0.237

The variant G39U U60C showed self-cleavage equal to 0.772

The variant G28C G38C showed self-cleavage equal to 0.0426

The variant G25U C58G showed self-cleavage equal to 0.18
